Source of measurements: patent US9663473B2

For each of the compounds below, state its EC50.
# Study Target: recombinant human ALX receptor (Homo sapiens)
# Sequence (P25090 1-351): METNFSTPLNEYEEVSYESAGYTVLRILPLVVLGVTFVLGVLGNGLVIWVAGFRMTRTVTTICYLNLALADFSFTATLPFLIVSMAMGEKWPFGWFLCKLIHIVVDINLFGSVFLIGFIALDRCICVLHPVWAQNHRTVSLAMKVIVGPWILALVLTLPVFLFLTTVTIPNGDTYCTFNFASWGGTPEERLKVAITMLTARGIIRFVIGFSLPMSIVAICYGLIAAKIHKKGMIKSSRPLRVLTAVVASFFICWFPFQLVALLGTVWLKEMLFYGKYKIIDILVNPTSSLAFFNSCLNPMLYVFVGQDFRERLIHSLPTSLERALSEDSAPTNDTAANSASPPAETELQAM
# Assay Method Text: Intracellular calcium measurements (FLIPR), ALX receptor agonistic activity
# Experimental Context: HEK293-hALXR-Gα16 cells, Fluo-4 calcium signal, normalized to WKYMVm 10 nM
Numbers only; they are read as µM.

Exercise: Quick one: EC50 of COc1ccc(C[C@@H](NC(=O)NCc2ccccc2COC(C)C)c2nc3ccccc3[nH]2)cc1 ?
Key: 0.023

Exercise: Quick one: EC50 of COc1ccc(C[C@@H](NC(=O)N[C@H](C)c2cccc(Cl)c2)c2nc3ccccc3[nH]2)cc1 ?
Key: 0.712

Exercise: Quick one: EC50 of COc1ccc(C[C@@H](NC(=O)N[C@H]2CCNC[C@@H]2F)c2nc3ccccc3[nH]2)cc1 (relative stereo) ?
Key: 0.027

Exercise: Quick one: EC50 of COc1ccc(C(C)(C)C(NC(=O)N[C@H]2CC[C@H](O)CC2)c2nc3ccccc3[nH]2)cc1 (relative stereo) ?
Key: 0.119

Exercise: Quick one: EC50 of COc1ccc(C[C@@H](NC(=O)N[C@H]2CCCC[C@@H]2O)c2nc3ccccc3[nH]2)cc1 (relative stereo) ?
Key: 0.024

Exercise: Quick one: EC50 of CCC(CC)NC(=O)N[C@H](Cc1ccc(OC)cc1)c1nc2ccccc2[nH]1 ?
Key: 0.124

Exercise: Quick one: EC50 of COc1ccc(CC(NC(=O)N[C@H]2CC[C@H](O)CC2)c2nc3ccc(Br)cc3[nH]2)cc1 (relative stereo) ?
Key: 0.0008

Exercise: Quick one: EC50 of COc1ccc(CC(NC(=O)NC23CCC(O)(CC2)CC3)c2nc3ccc(F)cc3[nH]2)c(F)c1 (single isomer, unassigned; ent-1) [Example 263] ?
Key: 0.0014

Exercise: Quick one: EC50 of COc1ccc(CC(NC(=O)Nc2cc(C3CC3)nn2-c2ccccc2)c2nc3ccccc3[nH]2)cc1 (centres unmarked) ?
Key: 0.032

Exercise: Quick one: EC50 of COc1ccc(C[C@@H](NC(=O)NCc2ncc(Br)cc2F)c2nc3ccccc3[nH]2)cc1 ?
Key: 0.439

Exercise: Quick one: EC50 of COc1ccc(CC(NC(=O)NCc2nc3ccccc3s2)c2nc3ccccc3[nH]2)cc1 (centres unmarked) ?
Key: 0.198

Exercise: Quick one: EC50 of COc1ccc(C[C@@H](NC(=O)NC2Cc3ccccc3C2)c2nc3ccccc3[nH]2)cc1 ?
Key: 0.109

Exercise: Quick one: EC50 of O=C(NC(Cc1ccc(C(F)(F)F)cc1F)c1nc2ccccc2[nH]1)N[C@H]1CC[C@H](O)CC1 (single isomer, unassigned; ent-2) [Example 359] ?
Key: 0.019

Exercise: Quick one: EC50 of COc1ccc(C[C@@H](NC(=O)N[C@H]2CNC[C@@H]2F)c2nc3ccccc3[nH]2)cc1 (relative stereo) ?
Key: 0.829

---

# Study Target: recombinant human ALX receptor (Homo sapiens)
# Assay Method Text: Intracellular calcium measurements (FLIPR), ALX receptor agonistic activity
# Experimental Context: HEK293-hALXR-Gα16 cells, Fluo-4 calcium signal, normalized to WKYMVm 10 nM
# Protocol: The ALX receptor agonistic activity of the compounds of formula (I) is determined in accordance with the following experimental method. Intracellular Calcium Measurements: Cells expressing recombinant human ALX receptor and the G-protein Gα16 (HEK293-hALXR-Gα16) were grown to 80% confluency in Growing Medium (GM). […] Changes in fluorescence were monitored before and after the addition of test compounds at lex=488 nm and lem=540 nm. […]
Counter-ions that a name gives are not always drawn.
Value Kind: EC50 (nM)
Numbers only; they are read as nM.

Exercise: Quick one: EC50 of COc1ccc(C[C@@H](NC(=O)NCc2cccc(Cl)c2Cl)c2nc3ccccc3[nH]2)cc1 ?
Key: 50

Exercise: Quick one: EC50 of COc1ccc(C[C@@H](NC(=O)N[C@@H](C)c2cccc(Cl)c2)c2nc3ccccc3[nH]2)cc1 ?
Key: 186

Exercise: Quick one: EC50 of COc1cc(F)c(CC(NC(=O)NC23CCC(O)(CC2)CC3)c2nc3ccccc3[nH]2)cc1F (single isomer, unassigned; ent-1) [Example 357] ?
Key: 1

Exercise: Quick one: EC50 of COc1ccc(CC(NC(=O)NC2CCC(C)(O)CC2)c2nc3ccccc3[nH]2)c(F)c1 (single isomer, unassigned; ent-1) ?
Key: 3.6

Exercise: Quick one: EC50 of COc1ccc(C[C@@H](NC(=O)NCCc2ccccc2C)c2nc3ccccc3[nH]2)cc1 [Example 63, hydrochloride] ?
Key: 105

Exercise: Quick one: EC50 of COc1ccc(C[C@@H](NC(=O)NCCc2ccc3c(c2)OCO3)c2nc3ccccc3[nH]2)cc1 ?
Key: 167

Exercise: Quick one: EC50 of CCOc1ccc(CC(NC(=O)N[C@H]2CC[C@H](O)CC2)c2nc3ccccc3[nH]2)cc1 (relative stereo) ?
Key: 203

Exercise: Quick one: EC50 of COc1ccc(C[C@@H](NC(=O)N2CCCC2)c2nc3ccccc3[nH]2)cc1 ?
Key: 561

Exercise: Quick one: EC50 of COc1ccc(C[C@@H](NC(=O)NC(C)(C)c2ccc(C)cc2)c2nc3ccccc3[nH]2)cc1 ?
Key: 225

Exercise: Quick one: EC50 of COc1ccc(C[C@@H](NC(=O)N[C@H]2CCCC[C@H]2CO)c2nc3ccccc3[nH]2)cc1 (relative stereo) ?
Key: 42

Exercise: Quick one: EC50 of COc1ccc(C[C@@H](NC(=O)N[C@H]2CC[C@](C)(O)CC2)c2nc3ccccc3[nH]2)cc1 ?
Key: 3.1

Exercise: Quick one: EC50 of COc1ccc(CC(NC(=O)N[C@H]2CC[C@](C)(O)CC2)c2nc3ccccc3[nH]2)cc1F (relative stereo) ?
Key: 6.6

Exercise: Quick one: EC50 of COc1ccc(CC(NC(=O)NC2CC(C)(C)NC(C)(C)C2)c2nc3ccccc3[nH]2)cc1F (centres unmarked) ?
Key: 58

Exercise: Quick one: EC50 of COc1ccc(C[C@@H](NC(=O)N[C@H]2CCCNC2)c2nc3ccccc3[nH]2)cc1 ?
Key: 23

---

# Study Target: recombinant human ALX receptor (Homo sapiens, UniProt P25090)
# Sequence (P25090 1-351): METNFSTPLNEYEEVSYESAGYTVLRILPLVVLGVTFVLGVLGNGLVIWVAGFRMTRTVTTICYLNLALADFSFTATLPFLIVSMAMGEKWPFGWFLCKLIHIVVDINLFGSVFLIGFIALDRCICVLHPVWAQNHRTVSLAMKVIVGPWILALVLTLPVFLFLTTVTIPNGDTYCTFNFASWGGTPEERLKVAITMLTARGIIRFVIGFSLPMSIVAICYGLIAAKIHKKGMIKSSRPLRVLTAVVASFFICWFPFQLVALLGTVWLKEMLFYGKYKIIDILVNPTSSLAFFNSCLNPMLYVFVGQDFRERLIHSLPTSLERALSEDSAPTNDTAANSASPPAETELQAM
# Assay Method Text: Intracellular calcium measurements (FLIPR), ALX receptor agonistic activity
# Experimental Context: HEK293-hALXR-Gα16 cells, Fluo-4 calcium signal, normalized to WKYMVm 10 nM
Where a name gives a salt, the structure may show the parent alone.
For each of the compounds below, state its pEC50.
Bear in mind: pEC50 is minus log10 of a mol/L concentration; give just that figure.

Exercise: Quick one: pEC50 of COc1ccc(C[C@@H](NC(=O)NCC2CCCCC2)c2nc3ccccc3[nH]2)cc1 ?
Key: 6.36

Exercise: Quick one: pEC50 of O=C(NC(Cc1ccc(C(F)(F)F)cc1F)c1nc2cc(F)ccc2[nH]1)NC12CCC(O)(CC1)CC2 (single isomer, unassigned; ent-1) ?
Key: 8.41

Exercise: Quick one: pEC50 of COc1ccc(C[C@@H](NC(=O)NCc2ncccc2C)c2nc3ccccc3[nH]2)cc1 ?
Key: 7.04

Exercise: Quick one: pEC50 of Cc1ccc(C[C@@H](NC(=O)N[C@H]2CC[C@H](O)CC2)c2nc3ccccc3[nH]2)cc1 ?
Key: 7.51

Exercise: Quick one: pEC50 of COc1ccc(C[C@@H](NC(=O)NCC(C)c2ccccc2)c2nc3ccccc3[nH]2)cc1 (stereo partly drawn) ?
Key: 7.30

Exercise: Quick one: pEC50 of COc1ccc(CC(NC(=O)NCc2cccnc2OC)c2nc3ccccc3[nH]2)cc1 (stereo not drawn) ?
Key: 5.99

Exercise: Quick one: pEC50 of COc1ccc(CC(NC(=O)NC2CCCC2)c2nc3ccccc3[nH]2)cc1 (stereo not drawn) ?
Key: 7.35

Exercise: Quick one: pEC50 of COc1ccc(C[C@@H](NC(=O)NCc2ccccc2OC)c2nc3ccccc3[nH]2)cc1 ?
Key: 6.14

Exercise: Quick one: pEC50 of COc1ccc(C[C@@H](NC(=O)NC2CC(C)(C)N(C)C(C)(C)C2)c2nc3ccccc3[nH]2)cc1 ?
Key: 7.20

Exercise: Quick one: pEC50 of COc1ccc(C[C@@H](NC(=O)NCc2cccnc2OCC(F)(F)F)c2nc3ccccc3[nH]2)cc1 [Example 64, hydrochloride] ?
Key: 7.29

Exercise: Quick one: pEC50 of COc1ccc(C[C@@H](NC(=O)NC2CCNC2)c2nc3ccccc3[nH]2)cc1 (stereo partly drawn) ?
Key: 7.06

Exercise: Quick one: pEC50 of COc1ccc(CC(NC(=O)NCCc2cccc(OC)c2)c2nc3ccccc3[nH]2)cc1 (stereo not drawn) ?
Key: 6.86

Exercise: Quick one: pEC50 of COCCNC(=O)N[C@H](Cc1ccc(OC)cc1)c1nc2ccccc2[nH]1 [Example 59, hydrochloride] ?
Key: 6.50

Exercise: Quick one: pEC50 of O=C(NC(Cc1ccc(C(F)(F)F)c(F)c1)c1nc2ccccc2[nH]1)NC12CCC(O)(CC1)CC2 (stereo not drawn) ?
Key: 7.44

Exercise: Quick one: pEC50 of O=C(N[C@H](Cc1ccc(C(F)(F)F)cc1)c1nc2ccccc2[nH]1)N[C@H]1CC[C@H](O)CC1 ?
Key: 7.72
